Would you mind telling me the reported inhibition of each entry?
Test system: Tyrosine-protein kinase ABL1 (Homo sapiens), P00519 [Q252H]
Assay Setup: at 1 µM
Answers are plain numbers, in %.

1. CCn1c(-c2nonc2N)nc2ccncc21	-0.21

Need inhibition for each of these molecules.
1. CS(=O)(=O)CCNCc1ccc(-c2ccc3ncnc(Nc4ccc(OCc5cccc(F)c5)c(C(F)(F)F)c4)c3c2)o1
2. O=C1NC(=O)C(N2CCc3ccccc32)=C1c1ccc(Cl)cc1
3. CNC(=O)c1cncc(/C=C/c2c(Cl)cccc2Cl)c1
4. Nc1ncnc2occ(-c3ccc(NC(=O)Nc4cccc(C(F)(F)F)c4)cc3)c12
5. [O-][S+]1CCN(Cc2ccc(-c3ccc4ncnc(Nc5ccc(OCc6ccccc6)c(F)c5)c4c3)o2)CC1

2.45
3.84
41.9
81.6
0.89

List inhibition for every entry below, keeping the order given.
1. O=C1NC(=O)C(c2cccc(Cl)c2)=C1Nc1ccc(O)c(Cl)c1
2. O=C1NC(=O)C(c2ccc(Cl)cc2)=C1Nc1ccc(Cl)c(C(=O)O)c1
3. CN1CCC(C(=O)Nc2n[nH]c3nnc(-c4ccccc4)cc23)CC1

1. 2.63
2. 1.68
3. 3.36

###

System Tested: ALK tyrosine kinase receptor (Homo sapiens)
Assay Setup: at 0.1 µM
Description: GSK_PKIS: ALK mean inhibition at 0.1 uM [Nanosyn]
Measured Endpoint: inhibition (%)
Give bare numbers, in %.

# count of solved cases: 9
1. CS(=O)(=O)Nc1ccc(N/C=C2\C(=O)Nc3ccccc32)cc1	-2.22
2. O=C1NC(=O)C(N2CCc3ccccc32)=C1c1ccc(Cl)cc1	3.63
3. CC1=C(C(=O)Nc2ccc3[nH]ncc3c2)C(c2ccc3ccccc3c2)CC(=O)N1 (stereo not given)	2.78
4. CCCN1CCC=C(c2ccc(Nc3nc(Nc4ccccc4C(N)=O)c4cc[nH]c4n3)c(C)c2)C1	76.2
5. COc1cc2c(cc1Nc1nc(N3CCc4ccccc43)c3cc[nH]c3n1)N(C(=O)CN(C)C)CC2	90
6. Cc1cccc(-c2n[nH]cc2-c2ccc3ncccc3n2)n1	2.05
7. NCc1ccc(-c2nc(-c3ccc(Cl)c(O)c3)c(-c3ccncc3)[nH]2)cc1	-0.45
8. COC(=O)Nc1nc2cc(Oc3ccc(NC(=O)Nc4cccc(C(=O)O)c4)cc3)ccc2[nH]1	-3.78
9. O=C(Nc1n[nH]c2nc(-c3ccco3)c(Br)cc12)C1CC1	1.26

Need inhibition of CCc1cccc(NC(=O)Nc2ccc(Oc3ccc4nc(NC(=O)OC)[nH]c4c3)cc2)c1 , thanks. 1.34

###

System Tested: Calcium/calmodulin-dependent protein kinase type IV (Homo sapiens) (UniProt Q16566);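 also: each value is a mean inhibition of CAMK4, part of the GSK PKIS kinase screening panel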
Sequence (Q16566 whole entry): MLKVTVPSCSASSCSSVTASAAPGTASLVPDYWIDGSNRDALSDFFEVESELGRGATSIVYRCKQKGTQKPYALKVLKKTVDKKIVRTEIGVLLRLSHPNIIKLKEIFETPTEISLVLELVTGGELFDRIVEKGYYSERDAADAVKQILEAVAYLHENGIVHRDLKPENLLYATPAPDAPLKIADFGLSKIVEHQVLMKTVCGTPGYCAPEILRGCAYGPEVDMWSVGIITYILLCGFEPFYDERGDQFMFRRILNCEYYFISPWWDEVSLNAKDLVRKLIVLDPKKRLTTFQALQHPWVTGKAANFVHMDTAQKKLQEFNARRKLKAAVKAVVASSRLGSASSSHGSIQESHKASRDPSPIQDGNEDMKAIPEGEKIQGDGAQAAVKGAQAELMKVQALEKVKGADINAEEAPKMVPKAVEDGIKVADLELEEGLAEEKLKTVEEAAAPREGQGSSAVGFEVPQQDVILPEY
Assay Setup: at 0.1 µM
Measured Endpoint: inhibition (%)
Numbers only, in %.

Take a look at these entries with their results.
1. CS(=O)(=O)CCNCc1ccc(-c2ccc3ncnc(Nc4ccc(OCc5cccc(F)c5)c(C(F)(F)F)c4)c3c2)o1	0.52
2. COc1cc2ncn(-c3cc(OCc4ccccc4Cl)c(C(N)=O)s3)c2cc1OC	0.78
3. COc1cc2ncn(-c3cc(OCc4ccccc4C(F)(F)F)c(C(N)=O)s3)c2cc1OC	-2.38
4. COc1cc(C=NNc2ncnc3c2cnn3-c2ccccc2)ccc1O	-0.28
5. COc1ccc2cc(-c3c(-c4ccncc4)nc(-c4ccc([S+](C)[O-])cc4)n3C)ccc2c1 (centres undefined)	0.45
6. O=C1NC(=O)C(N2CCc3ccccc32)=C1c1ccc(Cl)cc1	0.68
7. CCn1c(-c2nonc2N)nc2c(N3CCCC3)nccc21	-0.74
8. O=C1Nc2ccc(C(=O)c3ccco3)cc2C1=Cc1cc(Cl)c(O)c(Cl)c1	0.35
9. c1cnn2ncc(-c3ccnc(Nc4ccc5c(c4)OCCO5)n3)c2c1	0.39
10. CS(=O)(=O)CCN(CC#N)Cc1ccc(-c2ccc3ncnc(Nc4ccc(OCc5cccc(F)c5)c(Cl)c4)c3c2)o1	-2.98

Here are 4 compounds. What values of inhibition were reported for them?
1. O=C1NC(=O)C(c2cccc(Cl)c2)=C1Nc1ccc(O)c(Cl)c1
2. NCc1ccc(-c2nc(-c3ccc(Cl)c(O)c3)c(-c3ccncc3)[nH]2)cc1
3. COc1ccc(COc2ccc(Cc3cnc(N)nc3N)cc2OC)cc1
4. NS(=O)(=O)c1cccc(-c2ccc3c(NC(=O)C4CC4)n[nH]c3c2)c1

1. 1.98
2. 0.6
3. 1.77
4. -0.79

###

Task for the reader: assign each of the following molecules its reported inhibition.
System Tested: Ribosomal protein S6 kinase alpha-1 (Homo sapiens);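 also: values are mean percent inhibition of RSK1 measured in the GSK PKIS kinase inhibitor set screen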
Assay Setup: at 0.1 µM
Answers are plain numbers, in %.

Some solved entries appear below for comparison.
1) Cc1nnc(-c2ccc(C)c(-c3ccc(C(=O)Nc4cccc(C#N)c4)cc3)c2)o1	1.66
2) COc1ccc2cc(-c3c(-c4ccncc4)nc(-c4ccc([S+](C)[O-])cc4)n3C)ccc2c1 (stereo not given)	0.79
3) COc1ccc(-c2ccncc2)cc1C(N)=O	2.42
4) Nc1nc(-c2ccc3c(c2)C(=Cc2cc(Br)c(O)c(Br)c2)C(=O)N3)cs1	-0.32

Here is another molecule to look at.
Returns the measured inhibition for the input molecule. Input: COc1ccc(-c2nn3ncccc3c2-c2ccnc(Nc3ccc(Cl)c(C(F)(F)F)c3)n2)cc1 1.97

###

System Tested: Serine/threonine-protein kinase Sgk3 (Homo sapiens);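 also: each value is a mean of replicate inhibition readings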
Assay Setup: at 1 µM
Exercise: state measured inhibition for each of the molecules provided.
One number for each entry, in %.

1. CS(=O)(=O)CCNCc1ccc(-c2ccc3ncnc(Nc4ccc(OCc5cccc(F)c5)c(C(F)(F)F)c4)c3c2)o1	4.67
2. COc1ccc(-c2coc3ncnc(N)c23)cc1	2.97
3. CCn1c(-c2nonc2N)nc2cnc(Oc3cccc(NC(=O)c4ccc(OCCN5CCOCC5)cc4)c3)cc21	74.3
4. Cc1ccc(NC(=O)c2ccnc(N3CCCC3)c2)cc1-c1ccc(C(=O)NCC2CC2)cc1	1.99
5. COc1cccc(-n2ncc3c(N/N=C/c4cccc(F)c4)ncnc32)c1	0.75

Give inhibition for all molecules that follow.
1. Cc1cccc(-c2n[nH]cc2-c2ccc3ncccc3n2)n1
2. CS(=O)(=O)CCNCc1nc(-c2ccc3ncnc(Nc4ccc(F)c(Cl)c4)c3c2)cs1
3. CC1=C(C(=O)Nc2ccc3[nH]ncc3c2)C(c2ccc(Cl)c(Cl)c2)CC(=O)N1 (stereo not given)
4. CS(=O)(=O)Nc1ccc(N/C=C2\C(=O)Nc3ccccc32)cc1
5. CCn1c(-c2nonc2N)nc2cncc(C(=O)N3CCNCC3)c21

1. -0.02
2. 2.67
3. 10.8
4. -0.79
5. 6.39

###

System Tested: Casein kinase I isoform alpha (Homo sapiens);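 also: values are the mean percent inhibition of CK1a, averaged over measurements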
Assay Setup: at 0.1 µM
Measured Endpoint: inhibition

1) CN1CCC(C(=O)Nc2n[nH]c3nnc(-c4ccccc4)cc23)CC1	2.13%

Could you tell me inhibition for each of these compounds? They are listed below.
1. COc1cc(C=NNc2ncnc3c2cnn3-c2ccccc2)ccc1O
2. COc1cc2ncn(-c3cc(OCc4ccccc4Cl)c(C(N)=O)s3)c2cc1OC

1: 4.04%; 2: 1.79%

For each listed entry, give its inhibition.
1. CC1=C(C(=O)Nc2ccc3[nH]ncc3c2)C(c2ccc(F)cc2)NC(=O)N1 (stereo not given)
2. CN(C)c1cc2c(Nc3ccc4nc(Cc5ccccc5)[nH]c4c3)ncnc2cn1
3. CCn1c(-c2nonc2N)nc2cnc(Oc3cccc(NC(=O)c4ccc(OCCN5CCOCC5)cc4)c3)cc21
4. COc1cc2ncn(-c3cc(O[C@H](C)c4ccccc4Cl)c(C(N)=O)s3)c2cc1OC
5. Fc1cccc(COc2ccc(Nc3ncnc4sc(-c5cccs5)cc34)cc2Cl)c1
6. COc1ccccc1Nc1ncc(-c2ccccc2)o1
7. COc1ccc(-c2nn3ncccc3c2-c2ccnc(Nc3ccc(Cl)c(C(F)(F)F)c3)n2)cc1

1: 0.46%; 2: 3.65%; 3: 0.67%; 4: 3%; 5: -0.37%; 6: 2.14%; 7: -4.74%

###

System Tested: Ribosomal protein S6 kinase alpha-5 (Homo sapiens);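 also: mean inhibition of MSK1 reported, from a GSK PKIS inhibitor set screen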
Assay Setup: at 0.1 µM
Please provide measured inhibition for the entries that follow.

# example entries with known answers
1. CCn1c(-c2nonc2N)nc2ccncc21	1.63%
2. NS(=O)(=O)c1cccc(-c2ccc3c(NC(=O)C4CC4)n[nH]c3c2)c1	-0.03%
3. CN(C)c1cc2c(Nc3ccc4nc(Cc5ccccc5)[nH]c4c3)ncnc2cn1	4.14%
4. CCn1c(-c2nonc2N)nc2c(N3CCCC3)nccc21	-0.19%
5. Cc1cc(O)cc(C)c1/C=C/c1cncc(-c2nn[nH]n2)c1	3.79%

State recorded inhibition for all listed molecules.
1. N#Cc1c(NC(=O)c2cccc3ccccc23)sc2c1CCCC2
2. NC(=O)c1ccc(-c2nc(-c3ccccn3)c(-c3ccc4c(c3)OCO4)[nH]2)cc1

1: 7.78%; 2: 1.5%

###

System Tested: Tyrosine-protein kinase Lyn (Homo sapiens) (UniProt P07948);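 also: mean inhibition of the LYN A splice variant of the kinase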
Sequence (P07948 2-512 limits assumed): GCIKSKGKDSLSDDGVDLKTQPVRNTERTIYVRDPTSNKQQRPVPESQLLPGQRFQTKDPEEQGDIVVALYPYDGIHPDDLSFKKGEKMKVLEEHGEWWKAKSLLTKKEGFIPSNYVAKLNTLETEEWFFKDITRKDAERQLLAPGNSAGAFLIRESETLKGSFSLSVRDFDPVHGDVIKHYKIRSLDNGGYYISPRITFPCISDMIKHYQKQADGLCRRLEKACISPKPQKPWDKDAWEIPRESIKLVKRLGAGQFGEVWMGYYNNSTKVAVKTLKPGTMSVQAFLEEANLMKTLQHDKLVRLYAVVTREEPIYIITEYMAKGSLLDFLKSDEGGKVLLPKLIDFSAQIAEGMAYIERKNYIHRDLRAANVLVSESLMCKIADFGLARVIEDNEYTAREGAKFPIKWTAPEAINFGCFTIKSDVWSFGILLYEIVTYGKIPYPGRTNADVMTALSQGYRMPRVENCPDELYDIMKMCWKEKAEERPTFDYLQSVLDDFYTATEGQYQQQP
Assay Setup: at 0.1 µM
Description: GSK_PKIS: LYN A (splice variant) mean inhibition at 0.1 uM [Nanosyn]
Measured Endpoint: inhibition (%)
Answers are plain numbers, in %.

Please supply inhibition for each of the following items, keeping them in order.
1. COc1cc(C=NNc2ncnc3c2cnn3-c2ccccc2)ccc1O
2. Nc1ncnc2occ(-c3ccc(NC(=O)Nc4cc(C(F)(F)F)cc(C(F)(F)F)c4)cc3)c12
3. O=C1NC(=O)C(c2ccc(Cl)cc2)=C1Nc1ccc(Cl)c(C(=O)O)c1
4. CCn1c(-c2nonc2N)nc2cncc(C(=O)N3CC[C@H](N)C3)c21
5. NS(=O)(=O)c1ccc(N/N=C2\C(=O)Nc3ccc(C(=O)NCCc4c[nH]cn4)cc32)cc1
6. NC(=O)c1cccc(Nc2nccc(Nc3cccc4[nH]ncc34)n2)c1

1: 17.1; 2: 4.96; 3: 0.02; 4: 8.57; 5: 8.15; 6: 58.5

Answer for every listed entry: what is its inhibition? The entries follow.
1. COc1cc2ncn(-c3cc(OCc4ccccc4Cl)c(C(N)=O)s3)c2cc1OC
2. COc1ccc(COc2ccc(Cc3cnc(N)nc3N)cc2OC)cc1

[3.15, 0.58]

// for each molecule in input: emit inhibition
1. NS(=O)(=O)c1cccc(-c2ccc3c(NC(=O)C4CC4)n[nH]c3c2)c1
2. Cc1cc(O)cc(C)c1/C=C/c1cncc(-c2nn[nH]n2)c1
3. CS(=O)(=O)CCNCc1ccc(-c2ccc3ncnc(Nc4ccc(OCc5ccccc5)c(Cl)c4)c3c2)o1
4. CN(C)c1cc2c(Nc3ccc4nc(Cc5ccccc5)[nH]c4c3)ncnc2cn1
5. CS(=O)(=O)Nc1ccc(N/C=C2\C(=O)Nc3ccccc32)cc1

1. 1.09
2. 21.9
3. 1.21
4. 9.84
5. 0.65
